Just for reference, patent US11572347B2 is where these values come from.

assay-text: in vivo
condition-parameters: male, Sprague-Dawley, rat, in vivo, 0.3 mg/kg
quantity-name: concentration at 0.5 h (nM)

                           substance_smiles           quantity_name  result_number
0  COc1ccc(CNC(=O)c2cccc(OC3CCCC3)c2)c(C(F)(F)F)c1  concentration at 0.5 h              4

====

assay-text: in vivo
condition-parameters: male, Sprague-Dawley, rat, po, 100 mg/kg
quantity-name: concentration at 4 h (nM)

In [3]: df
Out[3]:
                           substance_smiles         quantity_name  unit_of_measurement  result_number
0  CCC(=O)N1CCC(C(=O)NCc2ccc(OC)cc2C(F)(F)F)CC1  concentration at 4 h                   nM            477

====

List of concentration at 48 h values.
assay-text: in vivo
condition-parameters: male, Sprague-Dawley, rat, in vivo, 0.3 mg/kg
quantity-name: concentration at 48 h

In [3]: df
Out[3]:
                           substance_smiles  result
0  COc1ccc(CNC(=O)c2cccc(OC3CCCC3)c2)c(C(F)(F)F)c1    0 nM
1  CCC(=O)N1CCC(C(=O)NCc2ccc(OC)cc2C(F)(F)F)CC1    0 nM
2  COc1ccc(CNC(=O)c2ccc(OC)c(OC3CCCC3)c2)c(C(F)(F)F)c1    0 nM

====

assay-text: in vivo
condition-parameters: male, Sprague-Dawley, rat, po, 100 mg/kg
quantity-name: concentration at 1 h (nM)

>>> df
                                   molecule  result_number
0  CCC(=O)N1CCC(C(=O)NCc2ccc(OC)cc2C(F)(F)F)CC1 [Compound 23/RBH61]           1380

====

assay-text: in vivo
condition-parameters: male, Sprague-Dawley, rat, in vivo, 0.3 mg/kg
Protocol: All the animal experiments were performed according to the protocols approved by the Animal Use and Care Committee of University of California-Davis. Male Sprague-Dawley rats (n=4, 8 week old, 250-300 g) were used in the pharmacokinetic study of sEH/PDE4 dual inhibitors. […] Inhibitor was dissolved in 100% polyethylene glycol 300 to form a clear solution. […]
quantity-name: concentration at 8 h

                           substance_smiles  result
0  COc1ccc(CNC(=O)c2cccc(OC3CCCC3)c2)c(C(F)(F)F)c1    1 nM
1  COc1ccc(CNC(=O)c2ccc(OC)c(OC3CCCC3)c2)c(C(F)(F)F)c1    0 nM
2  CCC(=O)N1CCC(C(=O)NCc2ccc(OC)cc2C(F)(F)F)CC1    0 nM

====

assay-text: in vivo
condition-parameters: male, Sprague-Dawley, rat, po, 3 mg/kg
quantity-name: concentration at 24 h

>>> df
                           substance_smiles  result
0  CCC(=O)N1CCC(C(=O)NCc2ccc(OC)cc2C(F)(F)F)CC1    0 nM

====

assay-text: in vivo
condition-parameters: male, Sprague-Dawley, rat, po, 100 mg/kg
quantity-name: concentration at 24 h (nM)

>>> print(df.to_string())
                                   molecule  unit_of_measurement  result_number
0  CCC(=O)N1CCC(C(=O)NCc2ccc(OC)cc2C(F)(F)F)CC1 [Compound 23/RBH61]                   nM              0

====

List of concentration at 2 h values.
assay-text: in vivo
condition-parameters: male, Sprague-Dawley, rat, in vivo, 0.3 mg/kg
quantity-name: concentration at 2 h (nM)

                           substance_smiles  result_number
0  CCC(=O)N1CCC(C(=O)NCc2ccc(OC)cc2C(F)(F)F)CC1             25
1  COc1ccc(CNC(=O)c2cccc(OC3CCCC3)c2)c(C(F)(F)F)c1              2
2  COc1ccc(CNC(=O)c2ccc(OC)c(OC3CCCC3)c2)c(C(F)(F)F)c1              0

====

assay-text: in vivo
condition-parameters: male, Sprague-Dawley, rat, po, 100 mg/kg
quantity-name: concentration at 2 h (nM)

>>> print(df.to_string())
                           substance_smiles         quantity_name  unit_of_measurement  result_number
0  CCC(=O)N1CCC(C(=O)NCc2ccc(OC)cc2C(F)(F)F)CC1  concentration at 2 h                   nM            923

====

assay-text: in vivo
condition-parameters: male, Sprague-Dawley, rat, po, 30 mg/kg
quantity-name: concentration at 2 h (nM)

                           substance_smiles  result_number
0  CCC(=O)N1CCC(C(=O)NCc2ccc(OC)cc2C(F)(F)F)CC1            527

====

assay-text: in vivo
condition-parameters: male, Sprague-Dawley, rat, po, 100 mg/kg
quantity-name: concentration at 8 h (nM)

                           substance_smiles  result_number
0  CCC(=O)N1CCC(C(=O)NCc2ccc(OC)cc2C(F)(F)F)CC1            254

====

assay-text: in vivo
condition-parameters: male, Sprague-Dawley, rat, po, 100 mg/kg
quantity-name: concentration at 12 h

>>> print(df.to_string())
                                   compound  result
0  CCC(=O)N1CCC(C(=O)NCc2ccc(OC)cc2C(F)(F)F)CC1 [Compound 23/RBH61]    0 nM

====

assay-text: in vivo
condition-parameters: male, Sprague-Dawley, rat, po, 30 mg/kg
quantity-name: concentration at 0 h (nM)

                                   compound  result_number
0  CCC(=O)N1CCC(C(=O)NCc2ccc(OC)cc2C(F)(F)F)CC1 [Compound 23/RBH61]              0

====

assay-text: in vivo
condition-parameters: male, Sprague-Dawley, rat, po, 30 mg/kg
quantity-name: concentration at 48 h (nM)

>>> print(df.to_string())
                           substance_smiles  result_number
0  CCC(=O)N1CCC(C(=O)NCc2ccc(OC)cc2C(F)(F)F)CC1              0

====

assay-text: in vivo
condition-parameters: male, Sprague-Dawley, rat, in vivo, 0.3 mg/kg
quantity-name: concentration at 24 h (nM)

>>> print(df.to_string())
                           substance_smiles  result_number
0  COc1ccc(CNC(=O)c2ccc(OC)c(OC3CCCC3)c2)c(C(F)(F)F)c1              0
1  COc1ccc(CNC(=O)c2cccc(OC3CCCC3)c2)c(C(F)(F)F)c1            0.3
2  CCC(=O)N1CCC(C(=O)NCc2ccc(OC)cc2C(F)(F)F)CC1              0

====

assay-text: in vivo
condition-parameters: male, Sprague-Dawley, rat, po, 3 mg/kg
quantity-name: concentration at 48 h (nM)

>>> print(df.to_string())
                                   molecule  result_number
0  CCC(=O)N1CCC(C(=O)NCc2ccc(OC)cc2C(F)(F)F)CC1 [Compound 23/RBH61]              0

====

assay-text: in vivo
condition-parameters: male, Sprague-Dawley, rat, po, 3 mg/kg
quantity-name: concentration at 1 h (nM)

In [3]: df
Out[3]:
                           substance_smiles  result_number
0  CCC(=O)N1CCC(C(=O)NCc2ccc(OC)cc2C(F)(F)F)CC1            400

====

assay-text: in vivo
condition-parameters: male, Sprague-Dawley, rat, po, 30 mg/kg
quantity-name: concentration at 8 h (nM)

In [3]: df
Out[3]:
                                   compound         quantity_name  result_number
0  CCC(=O)N1CCC(C(=O)NCc2ccc(OC)cc2C(F)(F)F)CC1 [Compound 23/RBH61]  concentration at 8 h             29

====

assay-text: in vivo
condition-parameters: male, Sprague-Dawley, rat, po, 30 mg/kg
quantity-name: concentration at 24 h (nM)

>>> print(df.to_string())
                                   compound          quantity_name  result_number
0  CCC(=O)N1CCC(C(=O)NCc2ccc(OC)cc2C(F)(F)F)CC1 [Compound 23/RBH61]  concentration at 24 h              0
